- Study target: Full length Human FAK (Flag-His-TEV-FAK1) (Homo sapiens)
- Construct: Full length Human FAK was expressed using baculovirus in Sf9 cells; made in house; host or cells: baculovirus in Sf9 cells
- Sequence (Q05397 whole entry): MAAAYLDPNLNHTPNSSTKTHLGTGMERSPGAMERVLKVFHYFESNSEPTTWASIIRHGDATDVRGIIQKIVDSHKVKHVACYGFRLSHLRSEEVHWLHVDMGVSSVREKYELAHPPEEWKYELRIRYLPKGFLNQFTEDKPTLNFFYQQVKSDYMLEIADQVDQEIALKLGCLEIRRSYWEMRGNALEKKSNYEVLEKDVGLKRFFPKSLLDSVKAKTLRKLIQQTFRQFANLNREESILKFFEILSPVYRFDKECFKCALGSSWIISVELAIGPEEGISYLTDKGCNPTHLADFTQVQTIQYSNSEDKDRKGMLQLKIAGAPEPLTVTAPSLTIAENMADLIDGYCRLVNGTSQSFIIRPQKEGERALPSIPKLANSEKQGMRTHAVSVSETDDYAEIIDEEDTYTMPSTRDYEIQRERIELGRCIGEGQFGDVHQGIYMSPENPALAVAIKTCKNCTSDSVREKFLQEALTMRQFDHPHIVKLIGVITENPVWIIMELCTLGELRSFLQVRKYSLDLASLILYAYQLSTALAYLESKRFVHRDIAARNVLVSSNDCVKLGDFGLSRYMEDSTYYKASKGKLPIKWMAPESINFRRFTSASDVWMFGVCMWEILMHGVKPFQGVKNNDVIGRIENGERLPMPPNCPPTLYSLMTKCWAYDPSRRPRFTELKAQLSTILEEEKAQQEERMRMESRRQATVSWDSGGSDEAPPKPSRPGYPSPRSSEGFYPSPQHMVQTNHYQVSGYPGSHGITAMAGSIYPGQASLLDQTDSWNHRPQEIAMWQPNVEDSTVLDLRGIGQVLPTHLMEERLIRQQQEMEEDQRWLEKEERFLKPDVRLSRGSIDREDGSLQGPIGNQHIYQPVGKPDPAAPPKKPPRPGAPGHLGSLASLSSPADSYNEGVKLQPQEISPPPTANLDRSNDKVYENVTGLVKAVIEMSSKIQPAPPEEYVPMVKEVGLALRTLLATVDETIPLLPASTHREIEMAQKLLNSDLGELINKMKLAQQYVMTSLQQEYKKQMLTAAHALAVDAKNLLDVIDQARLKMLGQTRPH
- Test details: Biochemical assay for FAK activity, Assay 2: LANCE Ultra ULight peptide phosphorylation, 665 nm/615 nm ratio
- Study conditions: Flag-His-TEV-FAK1, 10 μM ATP, 30 min pre-incubation; read-out: Assay 2 FAK H 31284A TRF PXC50 (converted)
Measured endpoint: IC50

Compound: CCn1nc(C)cc1Nc1cc(Nc2ccccc2C(=O)NC)c(Cl)cn1
Observed result: 2 nM

What measured IC50 goes with CCOCc1cc(Nc2cc(Nc3ccccc3C(=O)NC)c(Cl)cn2)n(C(C)C)n1 ?
25.1 nM

Can you check CCn1nccc1Nc1cc(Nc2ccccc2C(=O)NC)c(Cl)cn1 next?
5.01 nM

Can you check CCn1nccc1Nc1cc(Nc2ccccc2C(=O)NC)c(C(F)(F)F)cn1 next?
2 nM

Can you check CCn1nc(C(=O)NCCN(C)C)cc1Nc1cc(Nc2ccccc2C(=O)NC)c(Cl)cn1 next?
63.1 nM

Can you check CNC(=O)c1ccccc1Nc1cc(Nc2cc(C)nn2C(C)C)ncc1Cl next?
6.31 nM

Can you check CCn1nc(CO)cc1Nc1cc(Nc2c(F)cccc2C(=O)NOC)c(Cl)cn1 [Example 95c] next?
12.6 nM

Can you check CONC(=O)c1ccccc1Nc1cc(Nc2cc(C)nn2C)ncc1C1CC1 next?
10 nM

Can you check CCn1nc(C)cc1Nc1cc(Nc2c(F)cccc2C(=O)NC)c(C(F)(F)F)cn1 next?
1 nM

Can you check CCOC(=O)c1cc(Nc2cc(Nc3ccccc3C(=O)NC)c(Cl)cn2)n(CC)n1 next?
39.8 nM

Can you check CONC(=O)c1cc(Cl)ccc1Nc1cc(Nc2cc(C)nn2C(C)C)ncc1Cl next?
6.31 nM
